This collection of values is drawn from patent US20250215100A1.

- EXPERIMENTAL_SYSTEM: human CD40 on cells (human, UniProt P25942 21-277)
- Sequence (P25942 21-277): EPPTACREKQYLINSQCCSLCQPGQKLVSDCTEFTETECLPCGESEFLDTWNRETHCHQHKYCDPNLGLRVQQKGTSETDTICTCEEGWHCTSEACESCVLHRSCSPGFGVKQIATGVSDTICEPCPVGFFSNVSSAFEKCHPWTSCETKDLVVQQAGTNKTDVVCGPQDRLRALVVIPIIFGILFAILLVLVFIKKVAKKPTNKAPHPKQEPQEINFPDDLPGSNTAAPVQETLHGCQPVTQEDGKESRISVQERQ
- PROTOCOL_DETAILS: cell-based or functional assay
// Maximum fold (fold), uncrosslinked lookup, one value per entry
The response must be a number in fold with no trailing unit.

Check out these entries, answers already filled in.
Can you look up the measured Maximum fold (fold), uncrosslinked of PR006495 (antibody, human IgG1, kappa, V domains shown, PR003379 variant L:N92A; human IgG1 L234A, L235A, G237A) VH: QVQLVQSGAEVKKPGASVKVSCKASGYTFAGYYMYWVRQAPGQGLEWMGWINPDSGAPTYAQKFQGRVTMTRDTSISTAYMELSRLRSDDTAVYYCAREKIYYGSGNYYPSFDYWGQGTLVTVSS VL: DIQLTQSPSFLSASVGDRVTITCRASQGISSYLAWYQQKPGKAPKLLIYAASTLQSGVPSRFSGSGSGTEFTLTISSLQPEDFATYYCQQLASYPWTFGQGTKVEIKR for me? 4.92

Can you look up the measured Maximum fold (fold), uncrosslinked of PR006498 (antibody, human IgG1, kappa, V domains shown, PR003379 variant L:N92I; human IgG1 L234A, L235A, G237A) VH: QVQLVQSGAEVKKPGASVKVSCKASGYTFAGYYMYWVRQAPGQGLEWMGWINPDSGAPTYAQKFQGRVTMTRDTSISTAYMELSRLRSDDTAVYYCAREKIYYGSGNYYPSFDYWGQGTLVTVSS VL: DIQLTQSPSFLSASVGDRVTITCRASQGISSYLAWYQQKPGKAPKLLIYAASTLQSGVPSRFSGSGSGTEFTLTISSLQPEDFATYYCQQLISYPWTFGQGTKVEIKR for me? 4.4

Can you look up the measured Maximum fold (fold), uncrosslinked of PR006515 (antibody, human IgG1, kappa, V domains shown, PR003379 variant L:S93M; human IgG1 L234A, L235A, G237A) VH: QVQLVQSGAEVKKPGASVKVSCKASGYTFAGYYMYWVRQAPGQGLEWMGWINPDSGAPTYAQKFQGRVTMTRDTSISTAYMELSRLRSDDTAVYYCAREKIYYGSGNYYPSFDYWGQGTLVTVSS VL: DIQLTQSPSFLSASVGDRVTITCRASQGISSYLAWYQQKPGKAPKLLIYAASTLQSGVPSRFSGSGSGTEFTLTISSLQPEDFATYYCQQLNMYPWTFGQGTKVEIKR for me? 4.54

Can you look up the measured Maximum fold (fold), uncrosslinked of PR006502 (antibody, human IgG1, kappa, V domains shown, PR003379 variant L:N92D; human IgG1 L234A, L235A, G237A) VH: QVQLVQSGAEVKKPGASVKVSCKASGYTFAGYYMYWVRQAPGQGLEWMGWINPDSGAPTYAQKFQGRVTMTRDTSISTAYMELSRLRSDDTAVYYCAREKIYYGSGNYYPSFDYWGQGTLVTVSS VL: DIQLTQSPSFLSASVGDRVTITCRASQGISSYLAWYQQKPGKAPKLLIYAASTLQSGVPSRFSGSGSGTEFTLTISSLQPEDFATYYCQQLDSYPWTFGQGTKVEIKR for me? 4.63

Can you look up the measured Maximum fold (fold), uncrosslinked of PR006497 (antibody, human IgG1, kappa, V domains shown, PR003379 variant L:N92Y; human IgG1 L234A, L235A, G237A) VH: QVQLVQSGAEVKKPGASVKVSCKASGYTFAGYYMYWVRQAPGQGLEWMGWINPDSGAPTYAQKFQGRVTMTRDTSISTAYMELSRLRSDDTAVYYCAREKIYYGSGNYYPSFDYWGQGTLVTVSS VL: DIQLTQSPSFLSASVGDRVTITCRASQGISSYLAWYQQKPGKAPKLLIYAASTLQSGVPSRFSGSGSGTEFTLTISSLQPEDFATYYCQQLYSYPWTFGQGTKVEIKR for me? 4.61

Can you look up the measured Maximum fold (fold), uncrosslinked of PR006496 (antibody, human IgG1, kappa, V domains shown, PR003379 variant L:N92F; human IgG1 L234A, L235A, G237A) VH: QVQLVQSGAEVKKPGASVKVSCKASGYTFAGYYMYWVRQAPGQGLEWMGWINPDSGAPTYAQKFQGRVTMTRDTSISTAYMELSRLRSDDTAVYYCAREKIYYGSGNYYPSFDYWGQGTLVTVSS VL: DIQLTQSPSFLSASVGDRVTITCRASQGISSYLAWYQQKPGKAPKLLIYAASTLQSGVPSRFSGSGSGTEFTLTISSLQPEDFATYYCQQLFSYPWTFGQGTKVEIKR for me? 4.43

More entries:
Can you look up the measured Maximum fold (fold), uncrosslinked of PR006499 (antibody, human IgG1, kappa, V domains shown, PR003379 variant L:N92W; human IgG1 L234A, L235A, G237A) VH: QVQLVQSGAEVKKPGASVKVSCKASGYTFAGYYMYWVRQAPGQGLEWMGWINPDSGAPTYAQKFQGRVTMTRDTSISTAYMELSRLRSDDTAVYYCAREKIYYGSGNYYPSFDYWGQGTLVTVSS VL: DIQLTQSPSFLSASVGDRVTITCRASQGISSYLAWYQQKPGKAPKLLIYAASTLQSGVPSRFSGSGSGTEFTLTISSLQPEDFATYYCQQLWSYPWTFGQGTKVEIKR for me? 3.92

Can you look up the measured Maximum fold (fold), uncrosslinked of PR006504 (antibody, human IgG1, kappa, V domains shown, PR003379 variant L:N92V; human IgG1 L234A, L235A, G237A) VH: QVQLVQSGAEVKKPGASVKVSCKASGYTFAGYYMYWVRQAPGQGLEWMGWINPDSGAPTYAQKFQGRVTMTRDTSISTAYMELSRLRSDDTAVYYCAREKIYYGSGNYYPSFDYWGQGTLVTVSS VL: DIQLTQSPSFLSASVGDRVTITCRASQGISSYLAWYQQKPGKAPKLLIYAASTLQSGVPSRFSGSGSGTEFTLTISSLQPEDFATYYCQQLVSYPWTFGQGTKVEIKR for me? 4.7
